B1: AZIN2 peptide 1-16 (Antizyme inhibitor 2), 16-mer library wild type / NSP3 ADRP (ORF1ab Nsp3b ADRP, residues 1023-1192) (parent)
chain 1: MAGYLSESDFVMVEEG
chain 2: not shown

Variants of: B1
Conditions: with NSP3 ADRP (ORF1ab Nsp3b ADRP, residues 1023-1192); bait immobilised on MaxiSorp plates (10 µg), library pre-cleared on GST, 2 h binding at 4 °C, five washes; one round per day, days 1-4; value from days 2 and 3; keep out of graded; scale: average fractional NGS count over selection days 2 and 3
Property: screen value
Give bare numbers.

// worked examples, screen value included
chain 1 V13W : 4.62e-05
chain 1 V13A : 1.13e-05
chain 1 S6Q : 0
chain 1 V13F : 1.65e-05
chain 1 V13N : 6.59e-05
chain 1 G16M : 3.8e-05

For every item in the list below, what is its measured screen value?
1. chain 1 S8F
2. chain 1 E15Y
3. chain 1 L5M
4. chain 1 Y4F

1. 4.02e-05
2. 0
3. 1.33e-05
4. 1.08e-05

What value of measured screen value is listed for chain 1 D9H ?
2.63e-05
